Tested on: 299254-011-R-J1-PDC complex spheroids viability
Assay: Anticancer human tumor 299254-011-R-J1-PDC patient-derived melanoma cell line growth inhibition [GQUAD]
Details: second compound 0.1 µM; first compound 0.00999 µM; active compounds read low
Recorded Metric: viability, T/C (%)
Give the quantity in %, number only.

Prompt: Supply reported viability, T/C belonging to this compound: Cn1ncnc1[C@H]1c2n[nH]c(=O)c3cc(F)cc(c23)N[C@@H]1c1ccc(F)cc1 + CN(C)c1ccc(Nc2c3ccc(NC(=O)CCN4CCCC4)cc3nc3cc(NC(=O)CCN4CCCC4)ccc23)cc1
Completion: 107

Prompt: Supply reported viability, T/C belonging to this compound: CC[C@@]1(O)C(=O)OCc2c1cc1n(c2=O)Cc2cc3c(CN(C)C)c(O)ccc3nc2-1 + CN(C)c1ccc(Nc2c3ccc(NC(=O)CCN4CCCC4)cc3nc3cc(NC(=O)CCN4CCCC4)ccc23)cc1
Completion: 98.7

Prompt: Supply reported viability, T/C belonging to this compound: CC[C@@]1(O)C(=O)OCc2c1cc1n(c2=O)Cc2cc3c(CN(C)C)c(O)ccc3nc2-1 + Cc1cnc(CNC(=O)c2c(=O)c3ccc(N4CCCN(C)CC4)nc3n3c2sc2ccccc23)cn1
Completion: 81.8

----------
Tested on: 299254-011-R-J1-PDC complex spheroids viability
Experiment: Anticancer human tumor 299254-011-R-J1-PDC cell line growth inhibition [GQUAD];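 note: spheroids exposed to the agents for seven days before readout; percent viability relative to DMSO vehicle control wells = 100%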
Conditions: second compound 0.316 µM; first compound 3.16 µM; active compounds read low
In this scheme, each record receives a class according to its viability, T/C; the ranges are bucket 1 (below 50%), bucket 2 (50% to below 90%), bucket 3 (90% or more)

Prompt: Input C=CC(=O)N1CCN(c2nc(=O)n(-c3c(C)ccnc3C(C)C)c3nc(-c4c(O)cccc4F)c(F)cc23)C(C)C1 (centres undefined) + Cc1[nH]c2ccc(F)cc2c1-c1nc2c3cccnc3c3ncccc3c2[nH]1 ; output its category
Completion: bucket 2

Prompt: Input COc1ncnc(C2CC2)c1-c1ncc2cnn(Cc3ccc(-c4nc(C(F)(F)F)cn4C(C)C)cc3)c2n1 + Cc1cnc(CNC(=O)c2c(=O)c3ccc(N4CCCN(C)CC4)nc3n3c2sc2ccccc23)cn1 ; output its category
Completion: bucket 3

Prompt: Input COc1cc(C2c3cc4c(cc3C(OC3OC5COC(C)OC5C(O)C3O)C3COC(=O)C23)OCO4)cc(OC)c1O (centres undefined) + Cc1cnc(CNC(=O)c2c(=O)c3ccc(N4CCCN(C)CC4)nc3n3c2sc2ccccc23)cn1 ; output its category
Completion: bucket 2

Prompt: Input CC1COCCN1c1cc(C2(S(C)(=N)=O)CC2)nc(-c2ccnc3[nH]ccc23)n1 (centres undefined) + Cc1[nH]c2ccc(F)cc2c1-c1nc2c3cccnc3c3ncccc3c2[nH]1 ; output its category
Completion: bucket 2

Prompt: Input Cc1cccc(N(C)C(=O)C2C(O)CCN2c2nc(C)cc(C(F)(F)F)c2C#N)c1 (centres undefined) + Cc1cnc(CNC(=O)c2c(=O)c3ccc(N4CCCN(C)CC4)nc3n3c2sc2ccccc23)cn1 ; output its category
Completion: bucket 3

Prompt: Input C=CCn1c(=O)c2cnc(Nc3ccc(N4CCN(C)CC4)cc3)nc2n1-c1cccc(C(C)(C)O)n1 + Cc1cnc(CNC(=O)c2c(=O)c3ccc(N4CCCN(C)CC4)nc3n3c2sc2ccccc23)cn1 ; output its category
Completion: bucket 1

Prompt: Input C=CC(=O)N1CCN(c2nc(=O)n(-c3c(C)ccnc3C(C)C)c3nc(-c4c(O)cccc4F)c(F)cc23)C(C)C1 (centres undefined) + CN(C)c1ccc(Nc2c3ccc(NC(=O)CCN4CCCC4)cc3nc3cc(NC(=O)CCN4CCCC4)ccc23)cc1 ; output its category
Completion: bucket 2

Prompt: Input COc1ccc([C@@H](O)c2cc(-c3ncnc4cc(N5CCOCC5)ccc34)c(F)cc2Cl)nn1 + Cc1cnc(CNC(=O)c2c(=O)c3ccc(N4CCCN(C)CC4)nc3n3c2sc2ccccc23)cn1 ; output its category
Completion: bucket 2

Prompt: Input CC(=O)O[C@H]1C(=O)[C@@]2(C)[C@H]([C@H](OC(=O)c3ccccc3)[C@]3(O)C[C@H](OC(=O)[C@H](O)[C@@H](NC(=O)c4ccccc4)c4ccccc4)C(C)=C1C3(C)C)[C@]1(OC(C)=O)CO[C@@H]1C[C@@H]2O + Cc1[nH]c2ccc(F)cc2c1-c1nc2c3cccnc3c3ncccc3c2[nH]1 ; output its category
Completion: bucket 1

Prompt: Input CC1COCCN1c1cc(-c2ccnn2C)c2ccnc(-c3ccn[nH]3)c2n1 (centres undefined) + Cc1cnc(CNC(=O)c2c(=O)c3ccc(N4CCCN(C)CC4)nc3n3c2sc2ccccc23)cn1 ; output its category
Completion: bucket 1

Prompt: Input CC1COCCN1c1cc(C2(S(C)(=N)=O)CC2)nc(-c2ccnc3[nH]ccc23)n1 (centres undefined) + Cc1cnc(CNC(=O)c2c(=O)c3ccc(N4CCCN(C)CC4)nc3n3c2sc2ccccc23)cn1 ; output its category
Completion: bucket 1

Prompt: Input CC1COCCN1c1cc(-c2ccnn2C)c2ccnc(-c3ccn[nH]3)c2n1 (centres undefined) + CN(C)c1ccc(Nc2c3ccc(NC(=O)CCN4CCCC4)cc3nc3cc(NC(=O)CCN4CCCC4)ccc23)cc1 ; output its category
Completion: bucket 1

Prompt: Input CC(=O)O[C@H]1C(=O)[C@@]2(C)[C@H]([C@H](OC(=O)c3ccccc3)[C@]3(O)C[C@H](OC(=O)[C@H](O)[C@@H](NC(=O)c4ccccc4)c4ccccc4)C(C)=C1C3(C)C)[C@]1(OC(C)=O)CO[C@@H]1C[C@@H]2O + Cc1cnc(CNC(=O)c2c(=O)c3ccc(N4CCCN(C)CC4)nc3n3c2sc2ccccc23)cn1 ; output its category
Completion: bucket 1

Prompt: Input COc1cccc2c1C(=O)c1c(O)c3c(c(O)c1C2=O)CC(O)(C(=O)CO)CC3OC1CC(N)C(O)C(C)O1 (centres undefined) + Cc1[nH]c2ccc(F)cc2c1-c1nc2c3cccnc3c3ncccc3c2[nH]1 ; output its category
Completion: bucket 2

Prompt: Input CC(C)(O)C1CCC(Nc2ccc3ncc(-c4cccc(C(F)(F)F)c4)n3n2)CC1 (centres undefined) + CN(C)c1ccc(Nc2c3ccc(NC(=O)CCN4CCCC4)cc3nc3cc(NC(=O)CCN4CCCC4)ccc23)cc1 ; output its category
Completion: bucket 2

Prompt: Input C#Cc1c(F)ccc2cc(O)cc(-c3ncc4c(N5CC6CCC(C5)N6)nc(OCC56CCCN5CC(F)C6)nc4c3F)c12 (centres undefined) + Cc1[nH]c2ccc(F)cc2c1-c1nc2c3cccnc3c3ncccc3c2[nH]1 ; output its category
Completion: bucket 3

Prompt: Input C#Cc1c(F)ccc2cc(O)cc(-c3ncc4c(N5CC6CCC(C5)N6)nc(OCC56CCCN5CC(F)C6)nc4c3F)c12 (centres undefined) + CN(C)c1ccc(Nc2c3ccc(NC(=O)CCN4CCCC4)cc3nc3cc(NC(=O)CCN4CCCC4)ccc23)cc1 ; output its category
Completion: bucket 3

Prompt: Input COc1ncnc(C2CC2)c1-c1ncc2cnn(Cc3ccc(-c4nc(C(F)(F)F)cn4C(C)C)cc3)c2n1 + Cc1[nH]c2ccc(F)cc2c1-c1nc2c3cccnc3c3ncccc3c2[nH]1 ; output its category
Completion: bucket 3
